Source: the supplement of paper PMC10883282

Here, each record is paired with measured relative viability data.
tested on: SK-LMS-1; assay: relative viability vs DMSO control (72 h) (fraction); higher = more viable cells; settings: 0.04115 µM
metric: relative viability

| molecule | metric | measurement |
| --- | --- | --- |
| Cc1cccc(-c2[nH]c(CNc3ccccc3F)nc2-c2ccc3ncnn3c2)n1 [Vactosertib] | relative viability | 0.978 |
| Cc1cc(Nc2ncc(Cl)c(Nc3ccccc3S(=O)(=O)C(C)C)n2)c(OC(C)C)cc1C1CCNCC1 [Ceritinib] | relative viability | 1.01 |
| CCN(CCCOc1ccc2c(Nc3cc(CC(=O)Nc4cccc(F)c4)[nH]n3)ncnc2c1)CCOP(=O)(O)O [Barasertib] | relative viability | 1.01 |
| COc1cc2nccc(Oc3ccc(NC(=O)C4(C(=O)Nc5ccc(F)cc5)CC4)cc3)c2cc1OC [Cabozantinib] | relative viability | 0.982 |

* * *

test system: KHOS-240S; assay: relative viability vs DMSO control (72 h) (fraction); higher = more viable cells; conditions: 0.00457 µM
Listed below: relative viability values for each entry.
metric: relative viability

| molecule | measurement |
| --- | --- |
| CN(C)C[C@@H]1CCn2cc(c3ccccc32)C2=C(C(=O)NC2=O)c2cn(c3ccccc23)CCO1 [Ruboxistaurin] | 1.04 |
| COc1cc(OC)cc(N(CCNC(C)C)c2ccc3ncc(-c4cnn(C)c4)nc3c2)c1 [Erdafitinib] | 0.999 |
| Cc1cccc(-c2[nH]c(CNc3ccccc3F)nc2-c2ccc3ncnn3c2)n1 [Vactosertib] | 1.02 |

* * *

tested on: SW982; experiment: relative viability vs DMSO control (72 h) (fraction); higher = more viable cells; details: 0.00457 µM

| compound | relative viability |
| --- | --- |
| COc1cc(OC)cc(N(CCNC(C)C)c2ccc3ncc(-c4cnn(C)c4)nc3c2)c1 [Erdafitinib] | 0.992 |
| COc1cc2nccc(Oc3ccc(NC(=O)C4(C(=O)Nc5ccc(F)cc5)CC4)cc3)c2cc1OC [Cabozantinib] | 1.03 |
| CN1CCN(CCOc2cc(OC3CCOCC3)c3c(Nc4c(Cl)ccc5c4OCO5)ncnc3c2)CC1 [Saracatinib] | 1.06 |

* * *

test system: RD; assay: relative viability vs DMSO control (72 h) (fraction); higher = more viable cells; conditions: 0.00152 µM
metric: relative viability

| chem-smiles | measurement |
| --- | --- |
| Cc1cccc(-c2[nH]c(CNc3ccccc3F)nc2-c2ccc3ncnn3c2)n1 | 1.06 |
| N#CCC1(n2cc(-c3ncnc4[nH]ccc34)cn2)CN(C2CCN(C(=O)c3ccnc(C(F)(F)F)c3F)CC2)C1 | 1.02 |
| Cc1cc(Nc2ncc(Cl)c(Nc3ccccc3S(=O)(=O)C(C)C)n2)c(OC(C)C)cc1C1CCNCC1 | 1.04 |
| COc1cc2c(Oc3ccc4[nH]c(C)cc4c3F)ccnc2cc1OCC1(N)CC1 | 1.08 |
| CO[C@@H]1[C@H](N(C)C(=O)c2ccccc2)C[C@H]2O[C@]1(C)n1c3ccccc3c3c4c(c5c6ccccc6n2c5c31)C(=O)NC4 | 1.07 |
| C[C@@H]1COC(Nc2ccc3ncnc(Nc4ccc(OCc5nccs5)c(Cl)c4)c3c2)=N1 | 0.997 |
| NC(=O)c1cnc2[nH]ccc2c1N[C@@H]1[C@@H]2CC3C[C@H]1C[C@@](O)(C3)C2 | 1.04 |
| CCN(c1cc(-c2ccc(CN3CCOCC3)cc2)cc(C(=O)NCc2c(C)cc(C)[nH]c2=O)c1C)C1CCOCC1 | 1.04 |

* * *

Overview of recorded relative viability for various molecules
system: RD-ES; assay: relative viability vs DMSO control (72 h) (fraction); higher = more viable cells; conditions: 0.04115 µM

| molecule | relative viability |
| --- | --- |
| CCCCCCCCCCCCCCCCCCOP(=O)([O-])OC1CC[N+](C)(C)CC1 [Perifosine] | 0.989 |
| COc1cc2nccc(Oc3ccc(NC(=O)C4(C(=O)Nc5ccc(F)cc5)CC4)cc3)c2cc1OC [Cabozantinib] | 0.949 |
| CO[C@H]1C[C@@H]2CC[C@@H](C)[C@@](O)(O2)C(=O)C(=O)N2CCCC[C@H]2C(=O)O[C@H]([C@H](C)C[C@@H]2CC[C@@H](O)[C@H](OC)C2)CC(=O)[C@H](C)/C=C(\C)[C@@H](O)[C@@H](OC)C(=O)[C@H](C)C[C@H](C)/C=C/C=C/C=C/1C [Rapamycin] | 0.712 |

* * *

test system: A204; test: relative viability vs DMSO control (72 h) (fraction); higher = more viable cells; conditions: 0.04115 µM
Examples of compounds with documented relative viability follow.
metric: relative viability

| compound | target-system | metric | measurement |
| --- | --- | --- | --- |
| COc1cc2ncnc(Nc3ccc(F)c(Cl)c3)c2cc1NC(=O)/C=C/CN1CCCCC1 [Dacomitinib] | A204 | relative viability | 1.07 |
| C=CC(=O)Nc1cccc(Nc2nc(Nc3ccc(N4CCN(C(C)=O)CC4)cc3OC)ncc2C(F)(F)F)c1 [Rociletinib] | A204 | relative viability | 1.04 |
| Cc1cc(Nc2ncc(Cl)c(Nc3ccccc3S(=O)(=O)C(C)C)n2)c(OC(C)C)cc1C1CCNCC1 [Ceritinib] | A204 | relative viability | 1.06 |
| CCCCCCCCCCCCCCCCCCOP(=O)([O-])OC1CC[N+](C)(C)CC1 [Perifosine] | A204 | relative viability | 1.07 |
| Cc1cn(-c2cc(NC(=O)c3ccc(C)c(Nc4nccc(-c5cccnc5)n4)c3)cc(C(F)(F)F)c2)cn1 [Nilotinib] | A204 | relative viability | 1.07 |
| Cc1c(F)cc(C(=O)NC2CC2)cc1-c1ccc(C(=O)NCC(C)(C)C)cn1 [Losmapimod] | A204 | relative viability | 1.07 |
| C=CC(=O)Nc1cc(Nc2nccc(-c3cn(C)c4ccccc34)n2)c(OC)cc1N(C)CCN(C)C [Osimertinib] | A204 | relative viability | 1.03 |

* * *

Quick reference for relative viability among some compounds
system: VA-ES-BJ; experiment: relative viability vs DMSO control (72 h) (fraction); higher = more viable cells; details: 0.00051 µM
metric: relative viability

| chem-smiles | metric | measurement |
| --- | --- | --- |
| C=CC(=O)Nc1cc(Nc2nccc(-c3cn(C)c4ccccc34)n2)c(OC)cc1N(C)CCN(C)C | relative viability | 1.09 |
| C=CC(=O)Nc1cccc(Nc2nc(Nc3ccc(N4CCN(C(C)=O)CC4)cc3OC)ncc2C(F)(F)F)c1 | relative viability | 1.05 |
| CCN(c1cc(-c2ccc(CN3CCOCC3)cc2)cc(C(=O)NCc2c(C)cc(C)[nH]c2=O)c1C)C1CCOCC1 | relative viability | 1.05 |
| CC[C@@H]1C(=O)N(C)c2cnc(Nc3ccc(C(=O)N[C@H]4CC[C@H](N5CCN(CC6CC6)CC5)CC4)cc3OC)nc2N1C(C)C | relative viability | 1.04 |
| CCN(CCCOc1ccc2c(Nc3cc(CC(=O)Nc4cccc(F)c4)[nH]n3)ncnc2c1)CCOP(=O)(O)O | relative viability | 1.01 |
| CN1CCN(CCOc2cc(OC3CCOCC3)c3c(Nc4c(Cl)ccc5c4OCO5)ncnc3c2)CC1 | relative viability | 1.07 |
| COc1cc(Nc2c(C#N)cnc3cc(OCCCN4CCN(C)CC4)c(OC)cc23)c(Cl)cc1Cl | relative viability | 1.14 |
| Cc1cc(Nc2ncc(Cl)c(Nc3ccccc3S(=O)(=O)C(C)C)n2)c(OC(C)C)cc1C1CCNCC1 | relative viability | 1.04 |

* * *

tested on: RD; assay: relative viability vs DMSO control (72 h) (fraction); higher = more viable cells; settings: 10 µM
Item-by-item account of relative viability
metric: relative viability

| molecule | target-system | metric | measurement |
| --- | --- | --- | --- |
| CO[C@@H]1[C@H](N(C)C(=O)c2ccccc2)C[C@H]2O[C@]1(C)n1c3ccccc3c3c4c(c5c6ccccc6n2c5c31)C(=O)NC4 [Midostaurin] | RD | relative viability | 0.42 |
| C[C@H]1Oc2cc(cnc2N)-c2c(nn(C)c2C#N)CN(C)C(=O)c2ccc(F)cc21 [Lorlatinib] | RD | relative viability | 0.668 |
| CNC(=O)c1cc(Oc2ccc(NC(=O)Nc3ccc(Cl)c(C(F)(F)F)c3)cc2)ccn1 [Sorafenib] | RD | relative viability | 0.504 |
| C1=N/C2=N/c3ccc(OCCN4CCCC4)c(c3)COC/C=C/COCc3cccc(c3)C(=C1)N2 [Pacritinib] | RD | relative viability | 0.144 |
| COc1cc(Nc2c(C#N)cnc3cc(OCCCN4CCN(C)CC4)c(OC)cc23)c(Cl)cc1Cl [Bosutinib] | RD | relative viability | 0.0202 |

* * *

test system: KHOS-240S; assay: relative viability vs DMSO control (72 h) (fraction); higher = more viable cells; conditions: 3.333 µM
metric: relative viability

| chem-smiles | measurement |
| --- | --- |
| COc1cc2ncnc(Nc3cccc(Cl)c3F)c2cc1OC(=O)N1CCN(C)C[C@H]1C | 0.976 |
| NC(=O)c1cccc2cn(-c3ccc([C@@H]4CCCNC4)cc3)nc12 | 1.01 |
| Cc1cn(-c2cc(NC(=O)c3ccc(C)c(Nc4nccc(-c5cccnc5)n4)c3)cc(C(F)(F)F)c2)cn1 | 0.847 |
| COc1cc(Nc2c(C#N)cnc3cc(OCCCN4CCN(C)CC4)c(OC)cc23)c(Cl)cc1Cl | 0.49 |
| C=CC(=O)Nc1cccc(Nc2nc(Nc3ccc(N4CCN(C(C)=O)CC4)cc3OC)ncc2C(F)(F)F)c1 | 0.774 |
